The measurements presented in this section are drawn from the supplement of paper PMC10724198.

# Lookup of reported protein stability index keyed by entry
Tested on: Saccharomyces cerevisiae
Test: protein stability index of tFT-peptide fusion (C-terminal peptide) (PSI (0-1 scale)); higher = more stable (slower turnover);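 note: PSI is a weighted mean of sequencing reads over stability bins, variants kept only with over 10 reads, mCherry proximal and sfGFP distal, peptide attached via GGGS linker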
Conditions: genetic background: cdc53-1; temperature: 37 C
Returns: the value as a bare number; no unit string appended.

Reported protein stability index (Saccharomyces cerevisiae) for entry FLFLLLFLLLCC is 0.488

Reported protein stability index (Saccharomyces cerevisiae) for entry VVVFGWIGYLYL is 0.499

---

# Lookup of reported protein stability index keyed by entry
Test system: Saccharomyces cerevisiae
Assay: protein stability index of tFT-peptide fusion (C-terminal peptide) (PSI (0-1 scale)); higher = more stable (slower turnover)
Conditions: genetic background: wild type; temperature: 30 C
Returns: the value as a bare number; no unit string appended.

- primary sequence: "EAGGAQGPTGEL"
  protein stability index: 0.634

Lab book: protein stability index of GWAGRCAPGRVG noted as 0.637

Lab book: protein stability index of FRSFALFGNSFL noted as 0.704

Lab book: protein stability index of SLSPPPPAPRAP noted as 0.663

Lab book: protein stability index of LVSVSVGFFLLL noted as 0.499

Lab book: protein stability index of IGSFYVLSFICQ noted as 0.475

Lab book: protein stability index of CEHRTPLMFKRG noted as 0.686
